Here the recorded growth inhibition is given for each entry.
# Test system: HNSC
# Test Protocol: growth inhibition (% activity, log2 RLU normalised to DMSO / staurosporine); higher = more growth inhibition
# Test Conditions: 33 µM
Write the answer as a number in %, unit excluded.

These solved cases illustrate the format of a correct answer.
[[record]]
compound = "COC1C(O)CC(=O)OC(C)CC=CC=CC(OC2CCC(N(C)C)C(C)O2)C(C)CC(CC=O)C1OC1OC(C)C(OC2CC(C)(O)C(O)C(C)O2)C(N(C)C)C1O (stereo unspecified)"
quantity_kind = "growth inhibition"
data_value = -0.2

[[record]]
compound = "N=C(N)NCCC[C@H](N)C(=O)O"
quantity_kind = "growth inhibition"
data_value = 2.28

[[record]]
compound = "Nc1ccc(S(=O)(=O)Nc2ccccn2)cc1"
quantity_kind = "growth inhibition"
data_value = 0.764

[[record]]
compound = "CCOC(=O)OC(C)OC1=C(C(=O)Nc2ccccn2)N(C)S(=O)(=O)c2ccccc21 (stereo unspecified)"
quantity_kind = "growth inhibition"
data_value = -2.72

[[record]]
compound = "COc1cc2nc(N3CCN(C(=O)C4CCCO4)CC3)nc(N)c2cc1OC (stereo unspecified)"
quantity_kind = "growth inhibition"
data_value = 28


query: Give HNSC growth inhibition for c1ccc2[nH]c(-c3cscn3)nc2c1
result: -1.65

query: Item O=C1O[C@H]([C@@H](O)CO)C([O-])=C1O.[Na+] with HNSC - growth inhibition?
result: 6.78

query: Under HNSC: growth inhibition value of Nc1nc2c(ncn2COCCO)c(=O)[nH]1 ?
result: 5.44

query: Give the reported growth inhibition for CN1C[C@@H]2C[C@H]1CN2c1cc2c(cc1F)c(=O)c(C(=O)O)cn2C1CC1 (system: HNSC).
result: 7.67

query: API: value(readout=growth inhibition, system=HNSC) for record CCCCCCOC(=O)NC(=N)c1ccc(NCc2nc3cc(C(=O)N(CCC(=O)OCC)c4ccccn4)ccc3n2C)cc1
result: 1.37

query: Please provide the recorded growth inhibition for NS(=O)(=O)c1cc2c(cc1Cl)NC(C(Cl)Cl)NS2(=O)=O (stereo unspecified) , tested on HNSC.
result: -0.78

query: Tell me reported growth inhibition for COc1ccc(-n2nc(C(N)=O)c3c2C(=O)N(c2ccc(N4CCCCC4=O)cc2)CC3)cc1 , tested with HNSC.
result: -3.66

====

# Tested on: DIPGX7 (H3.3 K27M diffuse intrinsic pontine glioma line)
# Test Protocol: growth inhibition (% activity, log2 RLU normalised to DMSO / staurosporine); higher = more growth inhibition
# Test Conditions: 33 µM
# growth inhibition listing for each entry below
Unit % implied. Number only.

Example cases with answers are listed next.
[[record]]
compound = "CC[C@H]1OC(=O)[C@H](C)[C@@H](O[C@H]2C[C@@](C)(OC)[C@@H](O)[C@H](C)O2)[C@H](C)[C@@H](O[C@@H]2O[C@H](C)C[C@H](N(C)C)[C@H]2O)[C@](C)(O)C[C@@H](C)[C@@H]2N[C@@H](COCCOC)O[C@H]([C@H]2C)[C@]1(C)O"
data_value = -1.51

[[record]]
compound = "CO[C@H]1/C=C/O[C@@]2(C)Oc3c(C)c(O)c4c(O)c(c(/C=N/N5CCN(C)CC5)c(O)c4c3C2=O)NC(=O)/C(C)=C\\C=C\\[C@H](C)[C@H](O)[C@@H](C)[C@@H](O)[C@@H](C)[C@H](OC(C)=O)[C@@H]1C"
data_value = -0.321

[[record]]
compound = "CC(C)(Oc1ccc(CCNC(=O)c2ccc(Cl)cc2)cc1)C(=O)O"
data_value = 1.05

[[record]]
compound = "N#C[C@@H]1CCCN1C(=O)CNC12CC3CC(CC(O)(C3)C1)C2"
data_value = -0.508

[[record]]
compound = "Cc1cnc(C(=O)O)c[n+]1[O-]"
data_value = 1.7

[[record]]
compound = "CC(=O)N1CCN(c2ccc(OCC3COC(Cn4ccnc4)(c4ccc(Cl)cc4Cl)O3)cc2)CC1 (configuration not stated)"
data_value = 11.2


Turning now to a further compound:
query: Suppose we examine the compound O=C[C@H](O)[C@@H](O)[C@H](O)CO ; what growth inhibition value has been reported?
result: 0.91
